Data provenance: the supplement of paper PMC10567573

B1: MLL5 (parent)
chain: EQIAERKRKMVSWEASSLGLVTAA

Variants of: B1
Experiment description: protein stability index of a GFP-peptide fusion (GPS, HEK-293T) (PSI 1-6); higher = more stable;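 also: lentivirally expressed fusions sorted by FACS into six bins by GFP to DsRed ratio, PSI derived from sequencing read proportions per bin multiplied by bin number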
Experimental parameters: c terminus: a fixed tail appended
# label = Criterion met if protein stability index >= 3 else Criterion not met

Solved cases below.
A24Q	Criterion met
I3K	Criterion met
V11Q	Criterion met
E5F	Criterion not met

[Q] Check this variant for protein stability index at or above 3: R8N
[A] Criterion not met

[Q] Check this variant for protein stability index at or above 3: L18A
[A] Criterion met

[Q] Check this variant for protein stability index at or above 3: K9I
[A] Criterion not met

[Q] Check this variant for protein stability index at or above 3: I3R
[A] Criterion not met

[Q] Check this variant for protein stability index at or above 3: T22Y
[A] Criterion not met

[Q] Check this variant for protein stability index at or above 3: S12A
[A] Criterion met

[Q] Check this variant for protein stability index at or above 3: G19M
[A] Criterion not met
